Target: Estrogen receptor (Homo sapiens)
Sequence (P03372 whole entry): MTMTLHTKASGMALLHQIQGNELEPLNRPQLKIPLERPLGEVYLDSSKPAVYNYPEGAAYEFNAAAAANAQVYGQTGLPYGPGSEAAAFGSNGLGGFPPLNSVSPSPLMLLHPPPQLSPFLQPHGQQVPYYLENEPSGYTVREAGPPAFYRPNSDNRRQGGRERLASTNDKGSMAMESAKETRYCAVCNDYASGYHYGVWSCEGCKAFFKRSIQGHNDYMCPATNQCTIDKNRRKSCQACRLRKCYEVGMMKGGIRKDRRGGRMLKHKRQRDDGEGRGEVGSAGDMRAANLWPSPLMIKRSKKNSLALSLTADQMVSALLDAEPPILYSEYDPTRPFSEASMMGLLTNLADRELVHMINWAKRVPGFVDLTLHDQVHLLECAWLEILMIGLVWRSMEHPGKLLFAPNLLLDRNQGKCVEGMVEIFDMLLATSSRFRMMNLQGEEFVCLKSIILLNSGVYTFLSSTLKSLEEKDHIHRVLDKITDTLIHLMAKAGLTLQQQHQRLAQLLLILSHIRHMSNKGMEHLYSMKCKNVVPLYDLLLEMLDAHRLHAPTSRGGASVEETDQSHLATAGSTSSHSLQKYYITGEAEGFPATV
Overview of reported IC50 across a group of compounds:

Chem smiles	Target or test system	Unit abbrev	IC50
Oc1ccc2c(c1)CS[C@H](c1ccccc1)[C@@H]2c1ccc(OCCN2CCCC2)cc1	Estrogen receptor (Homo sapiens)	nM	0.6
Oc1ccc2c(c1)CO[C@H](c1ccccc1)[C@@H]2c1ccc(OCCN2CCCC2)cc1	Estrogen receptor (Homo sapiens)	nM	2.4
COc1ccc2c(c1)CS[C@H](c1ccccc1)[C@@H]2c1ccc(OCCN2CCCC2)cc1	Estrogen receptor (Homo sapiens)	nM	13
